# assayed-target: human recombinant furin (Homo sapiens)
# Construct: Soluble human recombinant furin was kindly gifted; gift of Dr Anna Kwiatkowska (group of Prof. Robert Day, Université de Sherbrooke)
# Sequence (P09958 108-715 limits assumed): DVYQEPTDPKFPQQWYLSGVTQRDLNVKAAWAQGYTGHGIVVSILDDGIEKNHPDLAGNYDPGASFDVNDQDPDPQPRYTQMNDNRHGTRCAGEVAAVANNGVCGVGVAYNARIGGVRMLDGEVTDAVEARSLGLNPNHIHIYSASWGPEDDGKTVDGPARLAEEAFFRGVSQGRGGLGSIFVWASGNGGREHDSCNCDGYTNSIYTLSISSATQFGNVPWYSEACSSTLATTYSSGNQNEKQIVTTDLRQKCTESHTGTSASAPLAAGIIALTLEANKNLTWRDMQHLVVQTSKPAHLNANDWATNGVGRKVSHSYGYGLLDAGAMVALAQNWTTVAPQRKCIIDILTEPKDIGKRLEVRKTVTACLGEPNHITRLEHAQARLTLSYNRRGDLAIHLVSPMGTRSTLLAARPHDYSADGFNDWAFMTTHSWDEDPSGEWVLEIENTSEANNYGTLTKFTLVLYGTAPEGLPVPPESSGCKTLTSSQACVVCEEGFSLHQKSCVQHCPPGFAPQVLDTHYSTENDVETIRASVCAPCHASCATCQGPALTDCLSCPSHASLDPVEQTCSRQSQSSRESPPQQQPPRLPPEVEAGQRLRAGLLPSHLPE
# details: ± SEM; triplicate, substrate 20 µM
Bridge positions count the residues as written; N and C are the ends. Peptide text beside a SMILES is read from it.
property-measured: IC50 (nM)
Numeric only. Scale: nM

Would you please look over these solved cases?
CC[C@H](C)[C@@H]1NC(=O)[C@@H]2CCCN2C(=O)[C@@H]2CCCN2C(=O)[C@H]([C@@H](C)CC)NC(=O)[C@H](CO)NC(=O)[C@H](CCCCN)NC(=O)[C@H](CCCCN)NC(=O)[C@@H](NC(=O)[C@H](CCCNC(=N)N)NC(=O)[C@@H](N)CCCCN)CSSC[C@@H](C(=O)N[C@@H](Cc2ccccc2)C(N)=O)NC1=O [FI, reference compound] (H-KRCKKSIPPICF-NH2; disulfide 3-11; N-terminus assumed) | 4.42
CC[C@H](C)[C@@H]1NC(=O)[C@@H]2CCCN2C(=O)[C@@H]2CCCN2C(=O)[C@H]([C@@H](C)CC)NC(=O)[C@H](CO)NC(=O)[C@H](CCCCN)NC(=O)[C@H](CCCCN)NC(=O)[C@@H]2CSSC[C@H](NC1=O)C(=O)N[C@@H](Cc1ccccc1)C(=O)N[C@@H](CCCNC(=N)N)C(=O)N[C@@H](CCCNC(=N)N)C(=O)N[C@@H](CCCNC(=N)N)C(=O)N2 [inhibitor 6] (cyclo(RRRCKKSIPPICF); disulfide 4-12) | 2.91
CC[C@H](C)[C@@H]1NC(=O)[C@@H]2CCCN2C(=O)[C@@H]2CCCN2C(=O)[C@H]([C@@H](C)CC)NC(=O)[C@H](CO)NC(=O)[C@H](CCCCN)NC(=O)[C@H](CCCCN)NC(=O)[C@@H](NC(=O)[C@H](CCCNC(=N)N)NC(=O)[C@H](CCCNC(=N)N)NC(=O)[C@@H](N)CCCNC(=N)N)CSSC[C@@H](C(=O)N[C@@H](Cc2ccccc2)C(N)=O)NC1=O [inhibitor 3] (H-RRRCKKSIPPICF-NH2; disulfide 4-12) | 3.07

Read the next record carefully.
For the compound CC[C@H](C)[C@@H]1NC(=O)[C@@H]2CCCN2C(=O)[C@@H]2CCCN2C(=O)[C@H]([C@@H](C)CC)NC(=O)[C@H](CO)NC(=O)[C@H](CCCCN)NC(=O)[C@H](CCCCN)NC(=O)[C@@H]2CSSC[C@H](NC1=O)C(=O)N[C@@H](Cc1ccccc1)C(=O)N[C@@H](CCCCN)C(=O)N[C@@H](CCCNC(=N)N)C(=O)N[C@@H](CCCNC(=N)N)C(=O)N2 [inhibitor 5] (cyclo(KRRCKKSIPPICF); disulfide 4-12) , what IC50 is on record?
2.41
